- target: GT1a R155K NS3/4A protease (UniProt P27958, R1181K, species not given)
- Assay type: biochemical, Hepatitis C virus
- recorded.conditions: read-out: Ki R155K; R155K variant
readout.kind: pKi
Please treat pKi as minus the base-10 logarithm of the molar concentration.

These recorded examples may help you get a feel for the data.
API: value(readout= pKi, system= GT1a R155K NS3/4A protease (UniProt P27958, R1181K, species not given), query= C=C[C@@H]1C[C@]1(NC(=O)[C@@H]1C[C@@H](Oc2nc3cc(OC)ccc3nc2Cl)CN1C(=O)[C@@H](NC(=O)OC(C)(C)C)C(C)(C)C)C(=O)NS(=O)(=O)C1CC1 [Compound 9d] ) 8.66

API: value(readout= pKi, system= GT1a R155K NS3/4A protease (UniProt P27958, R1181K, species not given), query= C=C[C@@H]1C[C@]1(NC(=O)[C@@H]1C[C@@H](Oc2nc3cc(OC)ccc3nc2C(C)C)CN1C(=O)[C@@H](NC(=O)OC(C)(C)C)C(C)(C)C)C(=O)NS(=O)(=O)C1CC1 [Compound 9c] ) 7.31

API: value(readout= pKi, system= GT1a R155K NS3/4A protease (UniProt P27958, R1181K, species not given), query= C=C[C@@H]1C[C@]1(NC(=O)[C@@H]1C[C@@H](Oc2nc3cc(OC)ccc3nc2CC)CN1C(=O)[C@@H](NC(=O)OC(C)(C)C)C(C)(C)C)C(=O)NS(=O)(=O)C1(C)CC1 [Compound 10a] ) 7.85

API: value(readout= pKi, system= GT1a R155K NS3/4A protease (UniProt P27958, R1181K, species not given), query= C=C[C@@H]1C[C@]1(NC(=O)[C@@H]1C[C@@H](Oc2nc3cc(OC)ccc3nc2C(C)C)CN1C(=O)[C@@H](NC(=O)OC(C)(C)C)C(C)(C)C)C(=O)NS(=O)(=O)C1(C)CC1 [Compound 10c] ) 7.57

Please look at the following compound next.
API: value(readout= pKi, system= GT1a R155K NS3/4A protease (UniProt P27958, R1181K, species not given), query= C=C[C@@H]1C[C@]1(NC(=O)[C@@H]1C[C@@H](Oc2nc3cc(OC)ccc3nc2CC)CN1C(=O)[C@@H](NC(=O)OC(C)(C)C)C(C)(C)C)C(=O)NS(=O)(=O)C1CC1 [Compound 3] ) 7.77

* * *

- Test system: HCV replicon R155K variant in Huh7 cells
- protocol.text: microbe, parasite or virus in culture
- Format: cell-based, Hepatitis C virus
- recorded.conditions: Hepatitis C virus, Huh-7, read-out: Replicon EC50 (nM) R155K, Table 4
readout.kind: EC50 (nM)
Provide the reading as a plain figure in nM.

If you can, please state the reported EC50 value of COc1ccc2nc(Cl)c(O[C@@H]3C[C@H]4C(=O)N[C@]5(C(=O)NS(=O)(=O)C6CC6)C[C@H]5/C=C\CCCCC[C@H](NC(=O)OC(C)(C)C)C(=O)N4C3)nc2c1 [Compound 18c] . 0.44

If you can, please state the reported EC50 value of CCc1nc2ccccc2nc1O[C@@H]1C[C@H]2C(=O)N[C@]3(C(=O)NS(=O)(=O)C4CC4)C[C@H]3/C=C\CCCCC[C@H](NC(=O)OC3CCCC3)C(=O)N2C1 [Compound 22g] . 4.28

If you can, please state the reported EC50 value of COc1ccc2nc(C(C)C)c(O[C@@H]3C[C@H]4C(=O)N[C@]5(C(=O)NS(=O)(=O)C6(C)CC6)C[C@H]5/C=C\CCCCC[C@H](NC(=O)OC5CCCC5)C(=O)N4C3)nc2c1 [Compound 23e] . 6.83

If you can, please state the reported EC50 value of COc1ccc2nc(C(F)(F)F)c(O[C@@H]3C[C@H]4C(=O)N[C@]5(C(=O)NS(=O)(=O)C6(C)CC6)C[C@H]5/C=C\CCCCC[C@H](NC(=O)OC(C)(C)C)C(=O)N4C3)nc2c1 [Compound 19d] . 2.3

If you can, please state the reported EC50 value of COc1ccc2nc(C)c(O[C@@H]3C[C@H]4C(=O)N[C@]5(C(=O)NS(=O)(=O)C6(C)CC6)C[C@H]5/C=C\CCCCC[C@H](NC(=O)OC5CCCC5)C(=O)N4C3)nc2c1 [Compound 23b] . 1.09

If you can, please state the reported EC50 value of C=C[C@@H]1C[C@]1(NC(=O)[C@@H]1C[C@@H]2CN1C(=O)[C@H](C(C)(C)C)NC(=O)O[C@@H]1C[C@H]1CCCCCc1nc3ccc(OC)cc3nc1O2)C(=O)NS(=O)(=O)C1CC1 [Compound 1, grazoprevir, reference compound] . 1.89

New cases:
If you can, please state the reported EC50 value of COc1ccc2nc(C(F)(F)F)c(O[C@@H]3C[C@H]4C(=O)N[C@]5(C(=O)NS(=O)(=O)C6CC6)C[C@H]5/C=C\CCCCC[C@H](NC(=O)OC5CCCC5)C(=O)N4C3)nc2c1 [Compound 22d] . 7.97

If you can, please state the reported EC50 value of COc1ccc2nc(Cl)c(O[C@@H]3C[C@H]4C(=O)N[C@]5(C(=O)NS(=O)(=O)C6(C)CC6)C[C@H]5/C=C\CCCCC[C@H](NC(=O)OC(C)(C)C)C(=O)N4C3)nc2c1 [Compound 19c] . 0.4

If you can, please state the reported EC50 value of CCc1nc2ccc(OC)cc2nc1O[C@@H]1C[C@H]2C(=O)N[C@]3(C(=O)NS(=O)(=O)C4(C)CC4)C[C@H]3/C=C\CCCCC[C@H](NC(=O)OC(C)(C)C)C(=O)N2C1 [Compound 19a] . 1.8

If you can, please state the reported EC50 value of CC(C)(C)OC(=O)N[C@H]1CCCCC/C=C\[C@@H]2C[C@@]2(C(=O)NS(=O)(=O)C2CC2)NC(=O)[C@@H]2C[C@@H](Oc3nc4ccccc4nc3-c3cccs3)CN2C1=O [Compound 18f, reference compound] . 21.7

If you can, please state the reported EC50 value of COc1ccc2nc(Cl)c(O[C@@H]3C[C@H]4C(=O)N[C@]5(C(=O)NS(=O)(=O)C6CC6)C[C@H]5/C=C\CCCCC[C@H](NC(=O)OC5CCCC5)C(=O)N4C3)nc2c1 [Compound 22c] . 0.59

Reference source: patent US11472778B2
